- ASSAY REMARKS: Solubility in water/DMSO at 60° C.
- Type: physicochemical
- MEASUREMENT PARAMETERS: water/DMSO, 60 °C, organic solvent or mixture, thermodynamic from solid, Water/DMSO at 60° C., 6 % water by volume
ASSAY ENDPOINT: solubility at 24 h (mg/mL)
Numeric answer only, unit mg/mL assumed.

Query :: Hello, please tell me recorded solubility at 24 h for this one: Cc1[nH]ncc1-c1cc2nc([C@@H]3CC4CCN3CC4)[nH]c(=O)c2s1 [Compound 1 Crystalline Form I, hemihydrate]
Result :: 65.8

---

- ASSAY REMARKS: Estimated solubility at 55° C. in recrystallization solvents
- Type: physicochemical
- MEASUREMENT PARAMETERS: organic solvent or mixture, thermodynamic from solid, solvent Acetone
ASSAY ENDPOINT: solubility

Query :: Give solubility for the following compound: Cc1[nH]ncc1-c1cc2nc([C@@H]3CC4CCN3CC4)[nH]c(=O)c2s1 [Compound 1 Crystalline Form A, hemihydrate]
Result :: < 2000 µg/mL

---

- ASSAY REMARKS: Estimated solubility at 55° C. in recrystallization solvents
- Assay type: physicochemical
- MEASUREMENT PARAMETERS: organic solvent or mixture, thermodynamic from solid, solvent Ethanol
ASSAY ENDPOINT: solubility (mg/mL)
Supply the numeric figure in mg/mL, leaving out any unit text.

Query :: Specify measured solubility for Cc1[nH]ncc1-c1cc2nc([C@@H]3CC4CCN3CC4)[nH]c(=O)c2s1 [Compound 1 Crystalline Form A, hemihydrate] .
Result :: 10.5

---

- ASSAY REMARKS: Estimated solubility at 55° C. in recrystallization solvents
- Format: physicochemical
- MEASUREMENT PARAMETERS: organic solvent or mixture, thermodynamic from solid, solvent IPA
ASSAY ENDPOINT: solubility (µg/mL)
Quick note: give the figure in µg/mL, leave out the unit.

Query :: Output solubility of Cc1[nH]ncc1-c1cc2nc([C@@H]3CC4CCN3CC4)[nH]c(=O)c2s1 [Compound 1 Crystalline Form A, hemihydrate]
Result :: 6700

---

- ASSAY REMARKS: Solubility in 200 mM phosphate buffer (pH 6.8)
- Type: physicochemical
- MEASUREMENT PARAMETERS: phosphate buffer, 20 °C, pH 6.8, aqueous buffer, thermodynamic from solid
ASSAY ENDPOINT: solubility at 20 h (µg/mL)
Answer format: numeric, µg/mL implied, no suffix.

Query :: Retrieve solubility at 20 h measured for Cc1[nH]ncc1-c1cc2nc([C@@H]3CC4CCN3CC4)[nH]c(=O)c2s1 [Compound 1 Crystalline Form A, hemihydrate] and print it.
Result :: 104

---

- ASSAY REMARKS: Estimated solubility at 55° C. in recrystallization solvents
- Type: physicochemical
- MEASUREMENT PARAMETERS: organic solvent or mixture, thermodynamic from solid, solvent Acetonitrile
ASSAY ENDPOINT: solubility

Query :: Item Cc1[nH]ncc1-c1cc2nc([C@@H]3CC4CCN3CC4)[nH]c(=O)c2s1 [Compound 1 Crystalline Form A, hemihydrate] : provide solubility
Result :: < 2000 µg/mL

---

- ASSAY REMARKS: Estimated solubility at 55° C. in recrystallization solvents
- Format: physicochemical
- MEASUREMENT PARAMETERS: organic solvent or mixture, thermodynamic from solid, solvent Methanol
ASSAY ENDPOINT: solubility (mg/mL)
Entry rule: numbers only, all in mg/mL.

Query :: Look up and report measured solubility for this entry: Cc1[nH]ncc1-c1cc2nc([C@@H]3CC4CCN3CC4)[nH]c(=O)c2s1 [Compound 1 Crystalline Form A, hemihydrate]
Result :: 33.3

---

- ASSAY REMARKS: Solubility in water/DMSO at 60° C.
- Format: physicochemical
- MEASUREMENT PARAMETERS: water/DMSO, 60 °C, organic solvent or mixture, thermodynamic from solid, Water/DMSO at 60° C., 10.7 % water by volume
ASSAY ENDPOINT: solubility at 24 h
A complete answer gives the number and then names the unit.

Query :: Retrieve solubility at 24 h measured for Cc1[nH]ncc1-c1cc2nc([C@@H]3CC4CCN3CC4)[nH]c(=O)c2s1 [Compound 1 Crystalline Form A, hemihydrate] and print it.
Result :: 32.1 mg/mL

---

- ASSAY REMARKS: Solubility in water/DMSO at 60° C.
- Type: physicochemical
- MEASUREMENT PARAMETERS: water/DMSO, 60 °C, organic solvent or mixture, thermodynamic from solid, Water/DMSO at 60° C., 4.5 % water by volume
ASSAY ENDPOINT: solubility at 24 h
Please give the number followed by its unit.

Query :: For the compound Cc1[nH]ncc1-c1cc2nc([C@@H]3CC4CCN3CC4)[nH]c(=O)c2s1 [Compound 1 Crystalline Form I, hemihydrate] , report solubility at 24 h.
Result :: 74.8 mg/mL

---

- ASSAY REMARKS: Estimated solubility at 55° C. in recrystallization solvents
- Assay type: physicochemical
- MEASUREMENT PARAMETERS: organic solvent or mixture, thermodynamic from solid, solvent Trifluoroethanol
ASSAY ENDPOINT: solubility

Query :: Kindly indicate its recorded solubility. Item: Cc1[nH]ncc1-c1cc2nc([C@@H]3CC4CCN3CC4)[nH]c(=O)c2s1 [Compound 1 Crystalline Form A, hemihydrate]
Result :: > 100 mg/mL

---

- ASSAY REMARKS: Solubility in water/DMSO at 60° C.
- Format: physicochemical
- MEASUREMENT PARAMETERS: water/DMSO, 60 °C, organic solvent or mixture, thermodynamic from solid, Water/DMSO at 60° C., 8.7 % water by volume
ASSAY ENDPOINT: solubility at 24 h (mg/mL)
Express your answer in mg/mL, writing the number without its unit.

Query :: Answer with the recorded solubility at 24 h of Cc1[nH]ncc1-c1cc2nc([C@@H]3CC4CCN3CC4)[nH]c(=O)c2s1 [Compound 1 Crystalline Form A, hemihydrate] only.
Result :: 44

---

- ASSAY REMARKS: Estimated solubility at 55° C. in recrystallization solvents
- Type: physicochemical
- MEASUREMENT PARAMETERS: organic solvent or mixture, thermodynamic from solid, solvent THF
ASSAY ENDPOINT: solubility (µg/mL)
Your answer is read as µg/mL, so omit the unit and give the number.

Query :: For the compound Cc1[nH]ncc1-c1cc2nc([C@@H]3CC4CCN3CC4)[nH]c(=O)c2s1 [Compound 1 Crystalline Form A, hemihydrate] , give its reported solubility.
Result :: 9100

---

- ASSAY REMARKS: Estimated solubility at 55° C. in recrystallization solvents
- Format: physicochemical
- MEASUREMENT PARAMETERS: organic solvent or mixture, thermodynamic from solid, solvent Formamide
ASSAY ENDPOINT: solubility (mg/mL)
Your answer should be a plain number; it is taken to be in mg/mL.

Query :: Return reported solubility. Input compound: Cc1[nH]ncc1-c1cc2nc([C@@H]3CC4CCN3CC4)[nH]c(=O)c2s1 [Compound 1 Crystalline Form A, hemihydrate]
Result :: 10

---

- ASSAY REMARKS: Solubility in 200 mM phosphate buffer (pH 6.8)
- Format: physicochemical
- MEASUREMENT PARAMETERS: phosphate buffer, 40 °C, pH 6.8, aqueous buffer, thermodynamic from solid
ASSAY ENDPOINT: solubility at 20 h (mg/mL)
Report the value in mg/mL with no unit label.

Query :: // Input: Cc1[nH]ncc1-c1cc2nc([C@@H]3CC4CCN3CC4)[nH]c(=O)c2s1 [Compound 1 Crystalline Form A, hemihydrate] . Output its solubility at 20 h only.
Result :: 0.136

---

- ASSAY REMARKS: Estimated solubility at 55° C. in recrystallization solvents
- Assay type: physicochemical
- MEASUREMENT PARAMETERS: organic solvent or mixture, thermodynamic from solid, solvent Ethyl acetate
ASSAY ENDPOINT: solubility

Query :: Identify the reported solubility for the following entry. Cc1[nH]ncc1-c1cc2nc([C@@H]3CC4CCN3CC4)[nH]c(=O)c2s1 [Compound 1 Crystalline Form A, hemihydrate]
Result :: < 2000 µg/mL

---

- ASSAY REMARKS: Solubility in 200 mM phosphate buffer (pH 6.8)
- Type: physicochemical
- MEASUREMENT PARAMETERS: phosphate buffer, 30 °C, pH 6.8, aqueous buffer, thermodynamic from solid
ASSAY ENDPOINT: solubility at 20 h (µg/mL)
// units = µg/mL; emit number, no label

Query :: Report solubility at 20 h for Cc1[nH]ncc1-c1cc2nc([C@@H]3CC4CCN3CC4)[nH]c(=O)c2s1 [Compound 1 Crystalline Form A, hemihydrate]
Result :: 115

---

- ASSAY REMARKS: Solubility in water/DMSO at 60° C.
- Format: physicochemical
- MEASUREMENT PARAMETERS: water/DMSO, 60 °C, organic solvent or mixture, thermodynamic from solid, Water/DMSO at 60° C., 9.8 % water by volume
- Experimental: A solution of DMSO/water with known water content was added to a glass vial and heated to 60° C. Crystals of Compound 1 Crystalline Form I or Compound 1 Crystalline Form A were added to the vial until a suspension was obtained. The suspension was stirred via magnetic stirring and incubated for 24 hrs at 60° C. After incubation, the suspension was filtered at 60° C. […] Sample concentration of Compound 1 was determined by HPLC. […]
ASSAY ENDPOINT: solubility at 24 h (mg/mL)
Answer in mg/mL, number only, no unit symbol.

Query :: Answer with the recorded solubility at 24 h for the compound listed here: Cc1[nH]ncc1-c1cc2nc([C@@H]3CC4CCN3CC4)[nH]c(=O)c2s1 [Compound 1 Crystalline Form A, hemihydrate]
Result :: 38.5
